# maps each entry to its Percent Effect
test system: Wolbachia pipientis; assay: Anti-Wolbachia Cell-Based Screen; type: functional; set-up: scale not given: in the data most compounds retested in dose-response had high values; settings: 5 µM
Screen size: about 48,000 compounds; about 13,000 (27%) showed an effect of 50% or more. The list shows a part of the results.
experimental_readout: Percent Effect (%)

• COc1cccc(COC(C)C(=O)N(C)Cc2nnc3n2CCC3)c1 (stereo unspecified) = -2.392
• CC(C)n1c(C2CCCN(CCS(C)(=O)=O)C2)nc2ccccc21 (stereo unspecified) = -3.684
• Cc1ccc(F)c(S(=O)(=O)NCc2cccc(N3CCOC3=O)c2)c1 = -1.653
• CN(C)c1ccc(C(=O)Nc2cnn(Cc3ccccn3)c2)cc1 = -12.03
• Cc1ccccc1C(=O)N1C[C@@H]2[C@@H](CN(C)CCc3ccccn3)[C@@H]2C1 = -8.245
• Cc1cnn(C2CN(CC(=O)NCc3ccccn3)C2)c1 = 0.4192
• CCCN(CCc1ccccn1)C(=O)Cn1cc(C)cn1 = 98.5
• N#Cc1ccnc(N2CCN(CC(O)c3ccccc3Cl)CC2)c1 (stereo unspecified) = -8.703
• O=C(NCCNc1ncccn1)N1CC=C(c2ccccc2)CC1 = 13.59
• CCCN(CCc1ccccn1)C(=O)CCc1cnn(C)c1 = 95.46
• CN(CCCc1cnn(C)c1)C(=O)C1COc2ccccc2C1 (stereo unspecified) = -12.29

The values you see were collected from ChEMBL document CHEMBL3988442.
